target: 20S proteasome extracted from rat liver (CT-L) (Rattus norvegicus, UniProt P18421+P28075); construct: 20S proteasome extracted from rat liver; from tissue; host or cells: rat liver; assay: inhibition of 20S proteasome, CT-L activity (fluorescent peptide); format: biochemical; details: 0.2 μM; rat liver 20S proteasome, 37° C., 1 h; read-out: inhibition rates (%) CT-L
measuredMetric: inhibition at 0.2 µM (%)
The reply should be a number in %, with the unit left off.

Some solved entries appear below for comparison.
molecule	measuredMetric	reported
COc1ccc(NC(=O)[C@H](Cc2ccccc2)NC(=O)N[C@@H](CC(C)C)B2OC3C[C@H]4C[C@H](C4(C)C)[C@@]3(C)O2)cc1 (stereo partly shown)	inhibition at 0.2 µM	-12.2
CC(C)C[C@H](NC(=O)N[C@@H](Cc1ccccc1)C(=O)N[C@@H](CC(C)C)C(=O)Nc1cnccn1)B(O)O	inhibition at 0.2 µM	63.3

Task: Looking for the measured inhibition at 0.2 µM of CC(C)C[C@H](NC(=O)[C@H](Cc1ccccc1)NC(=O)[C@H](Cc1ccccc1)NC(=O)Nc1cccc(OCc2ccccc2)c1)B(O)O , can you help?
Result: 49.5

Task: Item: CC(C)C[C@H](NC(=O)CNC(=O)Nc1cc(Cl)ccc1Cl)B(O)O
Result: 62

----------
Below, each of the compounds is paired with its reported inhibition at 1 µM value.
tested on: Hela, human cervical carcinoma; assay: preliminary anti-tumor screening in vitro, MTT method; format: cell-based; conditions: 1 μM, read-out: inhibition rates (%) Hela
The reply should be a number in %, with the unit left off.

Some solved entries appear below for comparison.
compound	endpointUnit	inhibition at 1 µM
COc1ccc(OC)c(CNC(=O)N[C@@H](Cc2ccccc2)C(=O)N[C@@H](CC(C)C)B2OC3CC4CC(C4(C)C)[C@]3(C)O2)c1 (some centres unmarked)	%	44
CC(C)C[C@H](NC(=O)N[C@@H](Cc1ccccc1)C(=O)N[C@@H](CC(C)C)C(=O)Nc1cnccn1)B(O)O	%	35
COc1ccc(CNC(=O)N[C@@H](Cc2ccccc2)C(=O)N[C@@H](CC(C)C)B(O)O)cc1	%	44.5
CC(C)C[C@H](NC(=O)N[C@@H](Cc1ccccc1)C(=O)Nc1cnccn1)B1OC2C[C@H]3C[C@H](C3(C)C)[C@@]2(C)O1 (some centres unmarked)	%	5.11
CC(C)C[C@H](NC(=O)[C@H](Cc1ccccc1)NC(=O)c1cnccn1)B(O)O [positive control, bortezomib, reference compound]	%	43.2

Task: What measured inhibition at 1 µM is associated with CC(C)C[C@H](NC(=O)[C@H](Cc1ccccc1)NC(=O)NCc1ccccc1)B(O)O on Hela, human cervical carcinoma?
Result: 43.2

Task: Item: COc1ccc(NC(=O)[C@H](Cc2ccccc2)NC(=O)N[C@@H](CC(C)C)B(O)O)cc1
Result: 13.4

Task: Item: CC(C)C[C@H](NC(=O)N[C@@H](Cc1ccccc1)C(=O)Nc1cnccn1)B(O)O
Result: 4.43

Task: Item: CC(C)C[C@H](NC(=O)N[C@@H](Cc1ccccc1)C(=O)Nc1cccc(OCc2ccccc2)c1)B(O)O
Result: 11.3

Task: Item: CC(C)C[C@H](NC(=O)N[C@@H](Cc1ccccc1)C(=O)Nc1cccc(OCc2ccccc2)c1)B1OC2C[C@H]3C[C@H](C3(C)C)[C@@]2(C)O1 (some centres unmarked)
Result: 10.3

Task: Item: CC(C)C[C@H](NC(=O)N[C@@H](CC(C)C)C(=O)N[C@@H](CC(C)C)C(=O)Nc1cnccn1)B(O)O
Result: 6.1

Task: Item: CC(C)C[C@H](NC(=O)CNC(=O)Nc1cc(Cl)ccc1Cl)B(O)O
Result: 19.7

Task: Item: COc1ccc(OC)c(CNC(=O)N[C@@H](Cc2ccccc2)C(=O)N[C@@H](CC(C)C)B(O)O)c1
Result: 39.6

Task: Item: CC(C)C[C@H](NC(=O)CNC(=O)Nc1cccc(OCc2ccccc2)c1)B(O)O
Result: 12.9

The measurements presented in this section are drawn from patent US10494384B2.
